// AUC lookup, one value per entry
Assay: Pharmacokinetics and oral bioavailability in the mouse
Settings: male, Balb Nu/Nu, plasma, po, 10 mg/kg
Numeric answer only, unit µM·h assumed.

Take a look at these entries with their results.
| SMILES | AUC (µM·h) |
| --- | --- |
| CC(C)n1cc(CN2CCC(N3Cc4cccc(C(N)=O)c4C3=O)CC2)c2ccccc21 | 1.48 |
| NC(=O)c1cc(F)cc2c1C(=O)N(C1CCN(C3CCC(F)(F)CC3)CC1)C2 | 19.6 |
| NC(=O)c1cccc2c1C(=O)N(C1CCN([C@H]3CC[C@H](CO)CC3)CC1)C2 | 1.3 |

Kindly consider the entry below.
So, NC(=O)c1cccc2c1C(=O)N(C1CCN([C@H]3CC[C@@H](CO)CC3)CC1)C2 ? Its AUC was 2.39
